# measurementTarget: T1, biotinylated goat anti-human kappa light chain
# T1 construct: positive control of the ELISA
# experiment: ELISA, positive control; further: test concentration or dose not given here
Recorded optical density by entry
The answer is to be given in OD; state only the numeric part.

The cases that follow already have their optical density on record.
[[record]]
binder = "370_F03 (antibody, V domains shown, Group III) VH: EVQLLESGGGLVQPGGSLRLSCAASGFTFSSYGMNWVRQAPGKGLEWVSSINYNSGYKSYADSVKGRFTISRDNSKNTLYLQMNSLRAEDTAVYYCARGANWHDTALDYWGQGTLVTVSS VL: DIQMTQSPSSLSASVGDRVTITCRASQSILSYVNWYQQKPGKAPKLLIYAATSRASGVPSRFSGSGSGTDFTLTISSLQPEDFATYYCQQSYENPLTFGGGTKVEIK"
outputunit = "OD"
number = 3.3

[[record]]
binder = "370_H07 (antibody, V domains shown, Group III) VH: EVQLLESGGGLVQPGGSLRLSCAASGFTFSSYSMNWVRQAPGKGLEWVAGINYNGGYKSYADSVKGRFTISRDNSKNTLYLQMNSLRAEDTAVYYCARGANWHDTALDYWGQGTLVTVSS VL: DIQMTQSPSSLSASVGDRVTITCRASQSILSYLNWYQQKPGKAPKLLIYAATSLASGVPSRFSGSGSGTDFTLTISSLQPEDFATYYCQQSDSSPLTFGGGTKVEIK"
outputunit = "OD"
number = 3.51

[[record]]
binder = "376_B10 (antibody, V domains shown, Group III) VH: EVQLLESGGGLVQPGGSLRLSCAASGFTFSDYSMNWVRQAPGKGLEWVAGINYNGGYKGYADSVKGRFTISRDNSKNTLYLQMNSLRAEDTAVYYCARGANWHDTALDYWGQGTLVTVSS VL: DIQMTQSPSSLSASVGDRVTITCRASQSILSYLNWYQQKPGKAPKLVIYAATSLASGVPSRFSGSGSGTDFTLTISSLQPEDFATYYCQQSYSTPLTFGGGTKVEIK"
outputunit = "OD"
number = 3.46


# input Need optical density of 368_H05 (antibody, V domains shown, Group III) VH: EVQLLESGGGLVQPGGSLRLSCAASGFTFSSYSMNWVRQAPGKGLEWVANINYNGGYKSYADSVKGRFTISRDNSKNTLYLQMNSLRAEDTAVYYCARGANWHDTHLDYWGQGTLVTVSS VL: DIQMTQSPSSLSASVGDRVTITCRASQSIVSYVNWYQQKPGKAPKLVIYATTSRASGVPSRFSGSGSGTDFTLTISSLQPEDFATYYCQQSYESPLTFGGGTKVEIK , thanks.
# output 3.34

# input What would you report for 376_E02 (antibody, V domains shown, Group III) VH: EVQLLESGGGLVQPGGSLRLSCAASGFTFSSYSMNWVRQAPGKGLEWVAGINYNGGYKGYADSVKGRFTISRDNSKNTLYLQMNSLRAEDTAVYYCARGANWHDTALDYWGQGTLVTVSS VL: DIQMTQSPSSLSASVGDRVTITCRASQSILSYVNWYQQKPGKAPKLVIYAATSRHSGVPSRFSGSGSGTDFTLTISSLQPEDFATYYCQQSDNTPLTFGGGTKVEIK ?
# output 3.41
